Target: DD(E) soluble fibrin-derived polypeptide (UniProt P02671)
Assay: Kd against DD(E) target
Bridge positions count the residues as written; N and C are the ends.
Kd values for the binders below.
Use µM as the unit, but write only the number.

In: I have this binder here, H-FACHYYGTCLH-NH2 (disulfide 3-9; SMILES CC(C)C[C@H](NC(=O)[C@@H]1CSSC[C@H](NC(=O)[C@H](C)NC(=O)[C@@H](N)Cc2ccccc2)C(=O)N[C@@H](Cc2c[nH]cn2)C(=O)N[C@@H](Cc2ccc(O)cc2)C(=O)N[C@@H](Cc2ccc(O)cc2)C(=O)NCC(=O)N[C@@H]([C@@H](C)O)C(=O)N1)C(=O)N[C@@H](Cc1c[nH]cn1)C(N)=O) [synthetic polypeptide …] , and I need its recorded Kd.
Out: 7.3

Please look at the following binder next.
In: I have this binder here, H-CDYYGTCL-NH2 (disulfide 1-7 (inferred)) [truncated peptide CDYYGTCL] , and I need its recorded Kd.
Out: 22
